Assay: Confirmation screen for delayed death inhibitors of the malarial parasite plastid, 48 hour incubation; note: nearly all actives have a fitted effect of over 65% in size
Settings: P. falciparum-infected erythrocytes, luciferase growth; series mostly up to 28.7 µM
In all, about 2,300 compounds went through this assay and about 1,200 (52%) were called active. Roughly 34% stayed inconclusive and do not appear here. Calls come from the whole dose curve; as a rule, active = well fitted inhibition curve with a large enough effect; inconclusive = small, poorly fitted or top-dose-only effect, or effect the other way; inactive = no such curve, though single readings can be large or run the other way. The set was probably picked from earlier hits. Some of the results follow.
Labels: active, inactive

| compound | assigned class |
| --- | --- |
| CC[C@H]1OC(=O)[C@H](C)[C@@H](O[C@H]2C[C@@](C)(OC)[C@@H](O)[C@H](C)O2)[C@H](C)[C@@H](O[C@@H]2O[C@H](C)C[C@H](N(C)C)[C@H]2O)[C@](C)(O)C[C@@H](C)CN(C)[C@H](C)[C@@H](O)[C@]1(C)O | active |
| Cc1cc(C)n(CC(O)COc2ccccc2)n1 (centres undefined) | active |
| COc1cccc(CN(C(=O)c2ccccc2Br)C2CCS(=O)(=O)C2)c1 (centres undefined) | active |
| COc1cc(/C=N/NC(=O)c2cc(-c3ccccc3OC(C)C)nc3ccccc23)ccc1O | active |
| COc1cccc(Nc2ccc(N3CCCCC3)cc2)c1OC | active |
| COc1ccc(Cn2c(O)c(C=Nc3ccc(O)cc3)c3ccccc3c2=O)cc1 | active |
| CC[C@H]1OC(=O)[C@H](C)[C@@H](O[C@H]2C[C@@](C)(OC)[C@@H](O)[C@H](C)O2)C(C)[C@@H](O[C@@H]2O[C@H](C)C[C@H](N(C)C)[C@@H]2O)[C@](C)(OC)C[C@@H](C)C(=O)[C@H](C)[C@@H](O)[C@]1(C)O (some centres undefined) | inactive |
| COc1ccc(/C=N/NC(=O)c2cc(-c3ccccc3OC(C)C)nc3ccccc23)cc1CN1CCOCC1 | inactive |
| CCOc1ccc(-c2cc(C(=O)N/N=C(\C)c3cccnc3)c3ccccc3n2)c(OCC)c1 | active |

These data points were gathered from PubChem BioAssay AID504850.
